B1: SPSB4 (parent)
chain: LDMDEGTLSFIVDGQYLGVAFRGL

# Variants of: B1
# method-summary: protein stability index of a GFP-peptide fusion (GPS, HEK-293T) (PSI 1-6); higher = more stable;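 note: lentivirally expressed fusions sorted by FACS into six bins by GFP to DsRed ratio, PSI derived from sequencing read proportions per bin multiplied by bin number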
# assay-context: c terminus: a fixed tail appended
measurement-label: protein stability index
// no unit, no text: just the number

| sequence-change | protein stability index |
| --- | --- |
| V12H | 1.62 |
| F10Y | 1.89 |
| F21H | 1.72 |
| F10P | 2.3 |
| G18N | 2.19 |

Moving on to the next variant.
Record Y16R , field protein stability index: 1.69

src = the supplement of paper PMC10567573
